This section presents compounds with their documented pIC50 values.
target: K-Ras G13C (Homo sapiens (Human), UniProt P01116+P62937, G13C); experiment: Ras-Raf (BRAF RBD) disruption / FRET / MOA assay, KRAS G13C; assay type: biochemical; details: KRAS G13C; Ras-Raf disruption/FRET/MOA assay; read-out: IC50* KRAS G13C FRET data
Sequence (P01116-2 other isoform, or with tags, fused parts or gaps G13C): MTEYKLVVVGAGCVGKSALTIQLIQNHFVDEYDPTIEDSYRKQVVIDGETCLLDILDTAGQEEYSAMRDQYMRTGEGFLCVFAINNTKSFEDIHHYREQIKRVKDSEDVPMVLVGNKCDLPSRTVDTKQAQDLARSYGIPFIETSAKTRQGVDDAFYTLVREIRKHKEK
Sequence (P62937 whole entry): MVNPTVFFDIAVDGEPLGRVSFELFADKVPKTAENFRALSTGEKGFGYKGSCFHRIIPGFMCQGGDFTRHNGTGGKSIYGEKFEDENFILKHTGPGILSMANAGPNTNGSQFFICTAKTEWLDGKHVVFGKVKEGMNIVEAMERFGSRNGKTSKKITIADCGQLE
pIC50: −log10 of the molar value.

Solved entries:
C=CC(=O)N1C[C@@H](F)[C@](F)(C(=O)N(C)[C@H](C(=O)N[C@H]2Cc3cccc(c3)-c3ccc4c(c3)c(c(-c3cccnc3[C@H](C)OC)n4CC)CC(C)(C)COC(=O)[C@@H]3CCCN(N3)C2=O)C(C)C)C1 (atropisomer, axis not shown) :: 7.00 to 8.00
C=CC(=O)N1C[C@H](C(=O)N(C)[C@H](C(=O)N[C@H]2Cc3cccc(c3)-c3ccc4c(c3)c(c(-c3cccnc3[C@H](C)OC)n4CC)CC(C)(C)COC(=O)[C@@H]3CCCN(N3)C2=O)C(C)C)[C@H](C(F)(F)F)C1 (atropisomer, axis not shown) :: 5.00 to 6.00
CC#CC(=O)N1CC[C@@]2(CCN([C@H](C(=O)N[C@H]3Cc4nc(cs4)-c4ccc5c(c4)c(c(-c4cccnc4[C@H](C)OC)n5CC)CC(C)(C)COC(=O)[C@@H]4CCCN(N4)C3=O)C(C)C)C2=O)C1 (atropisomer, axis not shown) :: 5.00 to 6.00
CCn1c(-c2cccnc2[C@H](C)OC)c2c3cc(ccc31)-c1cc(O)cc(c1)C[C@H](NC(=O)[C@H](C(C)C)N(C)C(=O)N1CCN(C(=O)/C=C/CN(C)C)CC1)C(=O)N1CCC[C@H](N1)C(=O)OCC(C)(C)C2 (atropisomer, axis not shown) :: 7.00 to 8.00
CCn1c(-c2cccnc2[C@H](C)OC)c2c3cc(ccc31)-c1cccc(c1)C[C@H](NC(=O)[C@@H](COC1CN(C(=O)C#CC(C)(C)O)C1)C(C)C)C(=O)N1CCC[C@H](N1)C(=O)OCC(C)(C)C2 (atropisomer, axis not shown) :: 5.00 to 6.00
CCn1c(-c2cccnc2[C@H](C)OC)c2c3cc(ccc31)-c1cccc(c1)C[C@H](NC(=O)[C@H](C(C)C)N(C)C(=O)[C@@H]1CCN(C(=O)C#CC(C)(C)N3CCC3)C1)C(=O)N1CCC[C@H](N1)C(=O)OCC(C)(C)C2 :: 6.00 to 7.00
CO[C@@H](COC1CN(C(=O)C#CC(C)(C)N(C)C)C1)C(=O)N[C@H]1Cc2coc(n2)-c2ccc3c(c2)c(c(-c2cccnc2[C@H](C)OC)n3CC(F)(F)F)CC(C)(C)COC(=O)[C@@H]2CCCN(N2)C1=O (atropisomer, axis not shown) :: 5.00 to 6.00
CO[C@@H](C)c1ncccc1-c1c2c3cc(ccc3n1CC(F)(F)F)-c1nc(cs1)C[C@H](NC(=O)[C@H](C(C)C)N(C)C(=O)[C@H]1CCN(C(=O)C#CC(C)(C)N3CCC3)C1)C(=O)N1CCC[C@H](N1)C(=O)OCC(C)(C)C2 (atropisomer, axis not shown) :: 6.00 to 7.00

Next:
What value of pIC50 has been reported for the following compound? C=CC(=O)N1CC[C@H]2[C@@H](C1)CN2C(=O)N(C)[C@H](C(=O)N[C@H]1Cc2nc(cs2)-c2ccc3c(c2)c(c(-c2cccnc2[C@H](C)OC)n3CC)CC(C)(C)COC(=O)[C@@H]2CCCN(N2)C1=O)C(C)C (atropisomer, axis not shown) 6.00 to 7.00
